Reference source for all entries: patent US9994623B2

- ASSAYED_SYSTEM: PA1b-binding site
- ASSAY_OVERVIEW: Affinity for the PA1b-binding site, ligand binding assay with 125I-labeled toxin
- CONDITION_LABEL: ligand binding with toxin labeled with iodine 125I; dash = no binding in the range of concentrations tested
Bridge positions count the residues as written; N and C are the ends. Ends that are not written are not given here.
OUTCOME_MEASURE: pKi
Would you please state pKi, meaning minus log10 of the concentration in mol/L, as a bare number?

{"SEQ": "EFCSSVGSFCSPFNTNPCGYLGNCRCVPYYLYGGTCENPFG (disulfide 3-24, 10-26, 18-36 (inferred)) [EG41]", "ASSAYED_SYSTEM": "PA1b-binding site", "QUANTITATIVE_RESULT": 7.14}
{"SEQ": "ASCPNVGAVCSPFETKPCGNVKDCRCLPWGLFFGTCINPTG (disulfide 3-24, 10-26, 18-36) [AG41]", "ASSAYED_SYSTEM": "PA1b-binding site", "QUANTITATIVE_RESULT": 8.89}

# returns recorded pKi (system: PA1b-binding site) for DECWGPCSVLQTPPCPLSKCYCIPLFLVVGYCSHASS [DS37]
6.16
